- System: Zymoseptoria tritici
- Assay Text: Fungicidal activity: leaf blotch of wheat (SEPTTR), disease control on wheat seedlings
- Assay type: in vivo
- Study Conditions: 72 h, LV activity at 121.5 g/H, 3 Day Curative, wheat (variety Yuma), read-out: SEPTTR 3DC disease control rating
Reported values of pest or weed control at 121.5 g/ha for individual entries

Guide cases for pest or weed control at 121.5 g/ha, answers given:
Input line: Quote pest or weed control at 121.5 g/ha reported for CCC(CC)[C@@H](Oc1cccc(Cl)c1)[C@H](C)OC(=O)[C@H](C)n1c(=O)oc2c(OC)ccnc2c1=O [Compound 9] please.
Output line: ≤ 80%

Input line: Quote pest or weed control at 121.5 g/ha reported for COc1ccnc2c(=O)n([C@@H](C)C(=O)O[C@H](C)C(c3ccc(F)cc3)c3ccc(F)cc3)c(=O)oc12 [Compound 29] please.
Output line: ≤ 80%

Input line: Quote pest or weed control at 121.5 g/ha reported for COc1ccc(O[C@@H](C)[C@H](OC(=O)[C@H](C)n2c(=O)oc3c(OC)ccnc3c2=O)C(C)C)cc1 [Compound 23] please.
Output line: > 80%

Input line: Quote pest or weed control at 121.5 g/ha reported for COc1cc(F)ccc1[C@@H](c1ccc(F)c(C)c1)[C@H](C)OC(=O)[C@H](C)n1c(=O)oc2c(OC)ccnc2c1=O [Compound 7] please.
Output line: > 80%

Input line: Quote pest or weed control at 121.5 g/ha reported for COc1ccnc2c(=O)n([C@@H](C)C(=O)O[C@@H](C)[C@H](c3ccc(C)cc3)c3ccc(C)cc3F)c(=O)oc12 [Compound 25] please.
Output line: > 80%

Input line: Quote pest or weed control at 121.5 g/ha reported for COc1ccnc2c(=O)n([C@@H](C)C(=O)O[C@@H](C)C(c3cccc(F)c3)c3cccc(F)c3)c(=O)oc12 [Compound 14] please.
Output line: > 80%

New cases:
Input line: Quote pest or weed control at 121.5 g/ha reported for COc1ccc(C(c2ccc(OC)cc2)[C@H](C)OC(=O)[C@H](C)n2c(=O)oc3c(OC)ccnc3c2=O)cc1 [Compound 18] please.
Output line: > 80%

----------
- Tested on: Zymoseptoria tritici
- Assay Text: Fungicidal activity: leaf blotch of wheat (SEPTTR), disease control on wheat seedlings
- Format: in vivo
- Study Conditions: 72 h, LV activity at 121.5 g/H, 3 Day Curative, wheat (variety Yuma), read-out: SEPTTR 3DC disease control rating
- Method: Technical grades of materials were dissolved in acetone, which were then mixed with nine volumes of water (H2O) containing 110 ppm Triton X-100. The fungicide solutions were applied onto wheat seedlings using an automated booth sprayer to run-off. […] All fungicides were evaluated using the aforementioned method for their activity vs. all target diseases, unless stated otherwise. […] Percent disease control was calculated using the ratio of disease severity on treated plants relative to untreated plants.
Reported values of pest or weed control at 121.5 g/ha for individual entries

Input line: Quote pest or weed control at 121.5 g/ha reported for COc1ccnc2c(=O)n([C@@H](C)C(=O)O[C@@H](C)[C@@H](c3ccccc3)c3ccc(F)c(C)c3)c(=O)oc12 please.
Output line: > 80%

New cases:
Input line: Quote pest or weed control at 121.5 g/ha reported for COc1ccnc2c(=O)n([C@@H](C)C(=O)O[C@@H](C)[C@H](Oc3ccccc3)C(C)(C)C)c(=O)oc12 please.
Output line: ≤ 80%

Input line: Quote pest or weed control at 121.5 g/ha reported for CCC[C@@H](Oc1ccc(C)cc1)[C@H](C)OC(=O)[C@H](C)n1c(=O)oc2c(OC)ccnc2c1=O please.
Output line: ≤ 80%

Input line: Quote pest or weed control at 121.5 g/ha reported for COc1ccnc2c(=O)n([C@@H](C)C(=O)O[C@@H](C)[C@H](c3ccc(F)cc3)c3ccc(F)cc3C)c(=O)oc12 please.
Output line: > 80%
